Target: T1, 4H3057-bH
T1 chain: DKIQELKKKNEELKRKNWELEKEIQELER
Assay: two-hybrid library CCNG1;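 further: natural log of median RNA to DNA barcode read ratio; higher means stronger binding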
Decision: interaction score beneath 0.4 gives YES; interaction score meeting or exceeding 0.4 gives NO.

1) DKIQELEKKNEELEREIWELEKKIQELKR [4H2438-bH] = NO

Q. Lab log: compare recorded interaction score with 0.4; is it strictly lower for DKIQELKKEIEELERENWELKKENQELKR [4H2588-bH] ?
A. YES

Q. Take the binder DEIQELEKENEELERKNWELEKKIQELKR [4H182-bH] and say whether its interaction score is less than 0.4.
A. NO

Q. interaction score strictly < 0.4 for this binder? DKIQELEKKNEELKREIWELEKKNQELER [4H2503-bH]
A. NO

Q. Is the reported interaction score for DKIQELKKENEELERENWELKKKIQELER [4H2717-bH] strictly below 0.4?
A. YES

Q. Could you please tell me whether interaction score recorded for DKIQELEKEIEELKRENWELEKKIQELKR [4H2134-bH] is less than 0.4?
A. NO

Q. Lab note: interaction score threshold 0.4. Does this binder come in strictly under it? DKIQELEKKNEELERKIWELKKEIQELER [4H2473-bH]
A. YES
